# system tested: Serine/threonine-protein kinase PLK1 (Homo sapiens, UniProt P53350)
# Sequence (P53350 whole entry): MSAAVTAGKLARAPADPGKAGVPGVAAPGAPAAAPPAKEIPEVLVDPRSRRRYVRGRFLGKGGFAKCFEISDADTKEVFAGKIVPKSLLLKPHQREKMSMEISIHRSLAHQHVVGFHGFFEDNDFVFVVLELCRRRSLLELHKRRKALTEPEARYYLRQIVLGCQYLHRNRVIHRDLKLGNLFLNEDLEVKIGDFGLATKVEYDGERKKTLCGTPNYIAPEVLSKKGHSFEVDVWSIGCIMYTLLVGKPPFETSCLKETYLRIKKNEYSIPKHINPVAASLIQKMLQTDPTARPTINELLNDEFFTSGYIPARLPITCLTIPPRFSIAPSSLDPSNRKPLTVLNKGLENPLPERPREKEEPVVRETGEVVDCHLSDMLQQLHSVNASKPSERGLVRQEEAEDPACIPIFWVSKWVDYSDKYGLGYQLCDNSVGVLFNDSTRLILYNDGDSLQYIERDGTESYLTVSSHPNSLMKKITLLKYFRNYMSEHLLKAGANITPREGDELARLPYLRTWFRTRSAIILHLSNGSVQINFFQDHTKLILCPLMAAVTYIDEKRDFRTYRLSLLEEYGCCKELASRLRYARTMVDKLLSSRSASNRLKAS
# protocol summary: Inhibition of recombinant full length human PLK1 using casein as substrate incubated for 40 mins in presence of [gamma-33P]-ATP by radiometric scintillation counting method
attribute measured: log10 IC50 (log10 of the value in nM)
Please interpret these as log10 of IC50 where IC50 is in nM.

Param item = CC[C@@H]1c2nnc(C)n2-c2cnc(Nc3ccc(C(=O)NC4CCN(C(=O)CCCCCCC(=O)Nc5cccc6c5CN(C5CCC(=O)NC5=O)C6=O)CC4)cc3OC)nc2N1CC1CCCCC1 (stereo partly specified) ; retrieve measured log10 IC50. 2.81

GET /values?readout=log10 IC50&item= CC[C@@H]1c2nnc(C)n2-c2cnc(Nc3ccc(C(=O)NC4CCN(CCCCCCCCCCCOc5cccc6c5C(=O)N(C5CCC(=O)NC5=O)C6=O)CC4)cc3OC)nc2N1CC1CCCCC1 (stereo partly specified) 3.58

# log10 IC50 lookup, item CC[C@@H]1c2nnc(C)n2-c2cnc(Nc3ccc(C(=O)NC4CCN(C(=O)CCCOc5cccc6c5C(=O)N(C5CCC(=O)NC5=O)C6=O)CC4)cc3OC)nc2N1CC1CCCCC1 (stereo partly specified) 2.90

Would you mind telling me what log10 IC50 value was observed for CC[C@@H]1c2nnc(C)n2-c2cnc(Nc3ccc(C(=O)NC4CCN(CCCCCCCCOc5cccc6c5C(=O)N(C5CCC(=O)NC5=O)C6=O)CC4)cc3OC)nc2N1CC1CCCCC1 (stereo partly specified) ? 3.71

# query: log10 IC50 of entry CC[C@@H]1c2nnc(C)n2-c2cnc(Nc3ccc(C(=O)NC4CCN(C(=O)CCCCCCOc5cccc6c5C(=O)N(C5CCC(=O)NC5=O)C6=O)CC4)cc3OC)nc2N1CC1CCCCC1 (stereo partly specified) 3.26

Entry CC[C@@H]1c2nnc(C)n2-c2cnc(Nc3ccc(C(=O)NC4CCN(CCCCCCOc5cccc6c5C(=O)N(C5CCC(=O)NC5=O)C6=O)CC4)cc3OC)nc2N1CC1CCCCC1 (stereo partly specified) has what log10 IC50? 3.39

Query: log10 IC50; subject: CC[C@@H]1c2nnc(C)n2-c2cnc(Nc3ccc(C(=O)NC4CCN(C(=O)CNc5cccc6c5CN(C5CCC(=O)NC5=O)C6=O)CC4)cc3OC)nc2N1CC1CCCCC1 (stereo partly specified) 3.30

Would you mind telling me what log10 IC50 value was observed for CC[C@@H]1c2nnc(C)n2-c2cnc(Nc3ccc(C(=O)NC4CCN(C(=O)CCCCCOc5cccc6c5C(=O)N(C5CCC(=O)NC5=O)C6=O)CC4)cc3OC)nc2N1CC1CCCCC1 (stereo partly specified) ? 3.09

Given the entry CC[C@@H]1c2nnc(C)n2-c2cnc(Nc3ccc(C(=O)NC4CCN(CCCCCOc5cccc6c5C(=O)N(C5CCC(=O)NC5=O)C6=O)CC4)cc3OC)nc2N1CC1CCCCC1 (stereo partly specified) , report its measured log10 IC50. 3.05

# query: log10 IC50 of entry CC[C@@H]1c2nnc(C)n2-c2cnc(Nc3ccc(C(=O)NC4CCN(CCCCNC(=O)COc5cccc6c5C(=O)C(C5CCC(=O)NC5=O)C6=O)CC4)cc3OC)nc2N1CC1CCCCC1 (stereo partly specified) 2.49

What measured log10 IC50 goes with CC[C@@H]1c2nnc(C)n2-c2cnc(Nc3ccc(C(=O)NC4CCN(C(=O)CCCCOc5cccc6c5C(=O)N(C5CCC(=O)NC5=O)C6=O)CC4)cc3OC)nc2N1CC1CCCCC1 (stereo partly specified) ? 3.08

###

# system tested: Serine/threonine-protein kinase PLK1 (Homo sapiens, UniProt P53350)
# protocol summary: Inhibition of recombinant full length human PLK1 using casein as substrate incubated for 40 mins in presence of [gamma-33P]-ATP by radiometric scintillation counting method
Hi there, I'd appreciate the recorded IC50 for every entry that follows.
Reply numerically in µM, unit not repeated.

Give the measured IC50 of CC[C@@H]1c2nnc(C)n2-c2cnc(Nc3ccc(C(=O)NC4CCN(CCCCCCCCCCOc5cccc6c5C(=O)N(C5CCC(=O)NC5=O)C6=O)CC4)cc3OC)nc2N1CC1CCCCC1 (stereo partly drawn) . 5.57

IC50 for CC[C@@H]1c2nnc(C)n2-c2cnc(Nc3ccc(C(=O)NC4CCN(CCCCCCCOc5cccc6c5C(=O)N(C5CCC(=O)NC5=O)C6=O)CC4)cc3OC)nc2N1CC1CCCCC1 (stereo partly drawn) ? 1.25

IC50 lookup needed for CC[C@@H]1c2nnc(C)n2-c2cnc(Nc3ccc(C(=O)NC4CCN(C(=O)CCCCCNc5cccc6c5CN(C5CCC(=O)NC5=O)C6=O)CC4)cc3OC)nc2N1CC1CCCCC1 (stereo partly drawn) , thanks. 1.21

###

Kindly state pIC50 for each of the entries shown.
# Tested on: CWR22R
# protocol summary: Antiproliferative activity against AR-positive human 22Rv1 cells assessed as reduction in cell viability measured after 4 days by MTT assay
# Format: functional, cell-based
# run parameters: 22Rv1, 96 h
Quick note: pIC50 means taking -log10 of the concentration in moles per liter.

pIC50 lookup needed for CC[C@@H]1c2nnc(C)n2-c2cnc(Nc3ccc(C(=O)NC4CCN(C(=O)COc5cccc6c5C(=O)N(C5CCC(=O)NC5=O)C6=O)CC4)cc3OC)nc2N1CC1CCCCC1 (some centres not stated) , thanks. 7.28

Item `CC[C@@H]1c2nnc(C)n2-c2cnc(Nc3ccc(C(=O)NC4CCN(C)CC4)cc3OC)nc2N1CC1CCCCC1` has what recorded pIC50? 6.24

###

# System: MV4-11
# protocol summary: Antiproliferative activity against human MV4-11 cells assessed as reduction in cell viability measured after 4 days by MTT assay
# Type: functional, cell-based
# run parameters: MV4-11, 96 h
For each of the compounds below, state its IC50.
A number alone suffices; assume nM.

Lookup: IC50 / MV4-11 / CC[C@@H]1c2nnc(C)n2-c2cnc(Nc3ccc(C(=O)NC4CCN(CCCCCOc5cccc6c5C(=O)N(C5CCC(=O)NC5=O)C6=O)CC4)cc3OC)nc2N1CC1CCCCC1 (stereo partly specified) 21

Which measured IC50 belongs to CC[C@@H]1c2nnc(C)n2-c2cnc(Nc3ccc(C(=O)NC4CCN(CCCCCCOc5cccc6c5C(=O)N(C5CCC(=O)NC5=O)C6=O)CC4)cc3OC)nc2N1CC1CCCCC1 (stereo partly specified) , tested on MV4-11? 184

Record CC[C@@H]1c2nnc(C)n2-c2cnc(Nc3ccc(C(=O)NC4CCN(C(=O)CCCCCCC(=O)Nc5cccc6c5CN(C5CCC(=O)NC5=O)C6=O)CC4)cc3OC)nc2N1CC1CCCCC1 (stereo partly specified) : what is its IC50 with MV4-11? 671

Fill in the recorded IC50 for this compound, with MV4-11 as test system: CC[C@@H]1c2nnc(C)n2-c2cnc(Nc3ccc(C(=O)NC4CCN(C(=O)CNc5cccc6c5CN(C5CCC(=O)NC5=O)C6=O)CC4)cc3OC)nc2N1CC1CCCCC1 (stereo partly specified) 18

Query the reported IC50 for MV4-11; item: CC[C@@H]1c2nnc(C)n2-c2cnc(Nc3ccc(C(=O)NC4CCN(C(=O)CCCCOc5cccc6c5C(=O)N(C5CCC(=O)NC5=O)C6=O)CC4)cc3OC)nc2N1CC1CCCCC1 (stereo partly specified) 13

Requested read-out IC50, target or system MV4-11, entry CC[C@@H]1c2nnc(C)n2-c2cnc(Nc3ccc(C(=O)NC4CCN(CCCCCCCCCCCOc5cccc6c5C(=O)N(C5CCC(=O)NC5=O)C6=O)CC4)cc3OC)nc2N1CC1CCCCC1 (stereo partly specified) 188

Form: Entry = CC[C@@H]1c2nnc(C)n2-c2cnc(Nc3ccc(C(=O)NC4CCN(C(=O)CCCCCCOc5cccc6c5C(=O)N(C5CCC(=O)NC5=O)C6=O)CC4)cc3OC)nc2N1CC1CCCCC1 (stereo partly specified) | System = MV4-11 | IC50 = ____ 10

# query: IC50 | item CC[C@@H]1c2nnc(C)n2-c2cnc(Nc3ccc(C(=O)NC4CCN(C(=O)CCCCNc5cccc6c5CN(C5CCC(=O)NC5=O)C6=O)CC4)cc3OC)nc2N1CC1CCCCC1 (stereo partly specified) | system: MV4-11 753

# get_value(readout= IC50, system= MV4-11) for CC[C@@H]1c2nnc(C)n2-c2cnc(Nc3ccc(C(=O)NC4CCN(CCCCCCCCCOc5cccc6c5C(=O)N(C5CCC(=O)NC5=O)C6=O)CC4)cc3OC)nc2N1CC1CCCCC1 (stereo partly specified) 36

Lab note: need IC50 for CC[C@@H]1c2nnc(C)n2-c2cnc(Nc3ccc(C(=O)NC4CCN(CCCCNC(=O)COc5cccc6c5C(=O)C(C5CCC(=O)NC5=O)C6=O)CC4)cc3OC)nc2N1CC1CCCCC1 (stereo partly specified) on MV4-11, anyone have it? 359

Provide value of IC50 for this record tested with MV4-11: CC[C@@H]1c2nnc(C)n2-c2cnc(Nc3ccc(C(=O)NC4CCN(C(=O)CCCCCOc5cccc6c5C(=O)N(C5CCC(=O)NC5=O)C6=O)CC4)cc3OC)nc2N1CC1CCCCC1 (stereo partly specified) 7
